From: PubChem BioAssay AID1963597

- Test system: human liver microsomes, metabolic stability half-life
- protocolText: NCATS Human Liver Microsomal (HLM) Stability Profiling
- measurementSetup: higher = more stable; screened at 1 µM (by protocol)
measureName: half-life

// solved cases for half-life follow
# molecule, half-life
rows = [
    ("C/C=C(/C(=C/C)c1ccc(OC(C)=O)cc1)c1ccc(OC(C)=O)cc1", "> 120 min"),
    ("Nc1ccc(S(=O)(=O)Nc2ccccc2)cc1", "> 120 min"),
]

Reported half-life, molecule COc1cc2c(NC3CCN(CC4CCCCC4)CC3)nc(N3CCCN(C(C)C)CC3)nc2cc1OCCCN1CCCCC1 : ____ 30 min

Record: COc1cc(C)c(Sc2cnc(NC(=O)c3ccc(CNC(C)C(C)C)cc3)s2)cc1C(=O)N1CCN(C(C)=O)CC1 (stereo unspecified) 8.06 min

And Cc1cc(C(=O)N2CCCCc3ccccc32)ccc1CNC(=O)N1CCC[C@H]1C(=O)N(C)C ? 6.54 min

====

The reader will find reported half-life values listed item by item below.
- System: human liver microsomes, metabolic stability half-life
- protocolText: NCATS Human Liver Microsomal (HLM) Stability Profiling
- measurementSetup: higher = more stable; screened at 1 µM (by protocol)
Record the value in min, omitting the unit from your answer.

Please review the entries below; each comes with its answer.
# molecule, systemUnderTest, numericResult
data = [
    ("Cc1ccc(NC(=O)Cn2c(=O)n(CCC(=O)N3CCc4ccccc4C3)c(=O)c3ccccc32)c(C)c1", "human liver microsomes, metabolic stability half-life", 1.41),
    ("O=C(Nc1nnc(-c2ccc3c(c2)OCCO3)o1)C1CCCCC1", "human liver microsomes, metabolic stability half-life", 0.57),
    ("Fc1ccc(CN2CCC(Nc3ccc(C(F)(F)F)nn3)CC2)cc1F", "human liver microsomes, metabolic stability half-life", 42.3),
]

For the molecule shown here, CCOC(=O)c1cc(=O)c2c(OCC(COc3cccc4oc(C(=O)OCC)cc(=O)c34)OC(=O)[C@@H](N)CCCCN)cccc2o1 , give the reported half-life. 4.47

Repeat for the following molecule: CCN1CCN(C(=O)Cc2ccc(Nc3ncc(F)c(Nc4ccc(C(=O)Nc5ccccc5Cl)cc4)n3)cc2)CC1 4.23

Same lookup for CC(C)C[C@H]1C(=O)N2CCC[C@H]2[C@]2(O)O[C@](NC(=O)[C@@H]3C=C4c5cccc6[nH]c(Br)c(c56)CC4N(C)C3)(C(C)C)C(=O)N12 (stereo partly drawn) , please. 0.89

====

Examples of molecules with documented half-life follow.
- Tested on: human liver microsomes, metabolic stability half-life
- protocolText: NCATS Human Liver Microsomal (HLM) Stability Profiling
- measurementSetup: higher = more stable; screened at 1 µM (by protocol)

A selection of reference data follows.
# molecule, measureName, result
measured = [
    ("CCC(C)(C)c1ccc(CC(C)CN2C[C@@H](C)O[C@@H](C)C2)cc1 (some centres undefined)", "half-life", "12.2 min"),
    ("CCN(CC)CCNc1ccc(CO)c2sc3ccccc3c(=O)c12", "half-life", "90.3 min"),
    ("COc1ccc(C(=O)C2CCN(CC(=O)N(Cc3nc4c(c(=O)[nH]3)COCC4)CC3CC3)CC2)cc1", "half-life", "81.7 min"),
    ("CN1C2CCC(C)(C)C1CC(OC(=O)C(O)(c1cccs1)c1cccs1)C2 (centres undefined)", "half-life", "26.5 min"),
]

Name the reported half-life value associated with the molecule CC1(C)O[C@@H]2C[C@H]3[C@@H]4CCC5=CC(=O)C=C[C@]5(C)[C@@]4(F)[C@@H](O)C[C@]3(C)[C@]2(C(=O)CO)O1 27.3 min

Please give the result for CCOP(=S)(OCC)Oc1nc(Cl)c(Cl)cc1Cl too. 1.81 min

Then this molecule: O=[N+]([O-])c1cn2c(n1)OC[C@@H](OCc1ccc(OC(F)(F)F)cc1)C2 > 120 min

Now give it for COC(=O)[C@@H]1CC2=CC(=O)CC[C@]2(C)[C@@]23O[C@@H]2C[C@@]2(C)[C@H](CC[C@@]24CCC(=O)O4)[C@@H]13 too. > 120 min

// query: COc1ccc2c(c1)c(CC(=O)OCC(=O)O)c(C)n2C(=O)c1ccc(Cl)cc1 > 120 min

====

compounds and their reported half-life
- Test system: human liver microsomes, metabolic stability half-life
- protocolText: NCATS Human Liver Microsomal (HLM) Stability Profiling
- measurementSetup: higher = more stable; screened at 1 µM (by protocol)
Give your result in min as a bare value.

# compound, systemUnderTest, numericResult
data = [
    ("Cc1nc2c3ccccc3nc(NNC(=O)CCC(=O)N3CCN(c4ccc(F)cc4)CC3)n2n1", "human liver microsomes, metabolic stability half-life", 40.4),
    ("CC1CCN(C(c2ccc(F)cc2)c2ccc(C(C)C(=O)O)cc2-c2ccc(C(F)(F)F)cc2)CC1 (stereo unspecified)", "human liver microsomes, metabolic stability half-life", 115),
    ("COc1cc(C(c2c(C)[nH][nH]c2=O)c2c(C)[nH][nH]c2=O)ccc1OC(=O)c1ccccc1F", "human liver microsomes, metabolic stability half-life", 1.83),
    ("Cn1nc(C(C)(C)C)cc1C(=O)NC(Cc1cccc(Cl)c1)C(=O)NCC#N (stereo unspecified)", "human liver microsomes, metabolic stability half-life", 67.4),
    ("N#Cc1cc(-c2n[nH]c(-c3ccncc3)n2)ccn1", "human liver microsomes, metabolic stability half-life", 90.6),
    ("CCN1CCN(C(=O)c2ccc3c(c2)N(Cc2cc(C)ccc2C)C(=O)c2ccccc2S3(=O)=O)CC1", "human liver microsomes, metabolic stability half-life", 1.24),
    ("CCCCN(CCCC)CCC(O)c1cc2c(Cl)cc(Cl)cc2c2cc(C(F)(F)F)ccc12 (stereo unspecified)", "human liver microsomes, metabolic stability half-life", 29.5),
    ("Cc1c(NC(=O)c2ccc(N3CCC(C)CC3)c([N+](=O)[O-])c2)cccc1-c1nc2ccccc2o1", "human liver microsomes, metabolic stability half-life", 30.7),
    ("O=C(NC1(c2ccccc2)CC1)c1c(CN2CCC(N3CCCCC3)CC2)c(-c2cccc(C(F)(F)F)c2)nc2cc(Br)ccc12", "human liver microsomes, metabolic stability half-life", 28.1),
    ("Cc1cc(=O)oc2cc(O)ccc12", "human liver microsomes, metabolic stability half-life", 60.6),
]

I am curious: what half-life value has been reported for COc1cc(C)c(/C=C/C(C)=C/C=C/C(C)=C/C(=O)O)c(C)c1C ? 32

Now try CC1(C#N)CCN(c2c(C(=O)N3CCN(C(=O)N4CCCC4)CC3)cnc3c(F)cc(F)cc23)CC1 . 27.2

Please do the same for Cc1ccccc1-n1c(SCc2ccc(Cl)cc2)nc2[nH]ncc2c1=O as well. 53.2

Further, for CC(=O)C1=C(c2ccc(Cl)c(Cl)c2)N(C(C)=O)n2cnnc2S1 ? 4.52

====

- Tested on: human liver microsomes, metabolic stability half-life
- protocolText: NCATS Human Liver Microsomal (HLM) Stability Profiling
- measurementSetup: higher = more stable; screened at 1 µM (by protocol)
Residues, ends and D or L forms follow the SMILES beside them. *: point of attachment. Hexanoyl = CCCCCC(=O)*
Short version: half-life at least 8 min is Criterion met, less is Criterion not met.

These recorded examples may help you get a feel for the data.
# molecule, classLabel
rows = [
    ("CCCCCC(=O)N1CCC[C@H]1C(=O)N[C@@H](Cc1ccc(O)cc1)C(=O)OC (Hexanoyl-Pro-Tyr-OMe)", "Criterion not met"),
    ("CCCCC(CC)CN=C(N)NC(N)=NCCCCCCN=C(N)NC(N)=NCC(CC)CCCC (stereo not given)", "Criterion met"),
    ("Cc1ccc(S(=O)(=O)NC2CCC(C(C)(C)C)CC2)cc1 (stereo not given)", "Criterion not met"),
    ("Cc1ccc(Cl)cc1N1CCN(C(=O)c2cn(C3CCCCC3)c(=O)c3c2c2ccccc2n3C)CC1", "Criterion not met"),
    ("CN1c2cc(C(=O)Nc3ccc(C#N)cc3)ccc2C(=O)N2CCCCC21 (stereo not given)", "Criterion met"),
    ("O=C(O)c1ccc2c(c1)nc(Nc1cccc(Cl)c1)c1ccncc12", "Criterion met"),
    ("CC[C@]1(C2=NCCN2)Cc2ccccc2O1", "Criterion met"),
    ("Cc1cccc(N2CCN(C(=O)CCC(=O)NNc3nc4ccccc4c4nc(C)nn34)CC2C)c1 (stereo not given)", "Criterion not met"),
]

Could you please find out whether CC(C)(C)Sc1c(CC(C)(C)C(=O)O)n(Cc2ccc(Cl)cc2)c2ccc(OCc3ccc4ccccc4n3)cc12 has half-life that meets 8 min or exceeds it? Criterion met

Can you handle CO/N=C(\C(=O)O)c1csc(NC(=O)CCl)n1 next? Criterion met

====

// half-life lookup, one value per entry
- Tested on: human liver microsomes, metabolic stability half-life
- protocolText: NCATS Human Liver Microsomal (HLM) Stability Profiling
- measurementSetup: higher = more stable; screened at 1 µM (by protocol)

# molecule, systemUnderTest, result
measured = [
    ("CN(C)CCCO[C@H]1C([C@H](O)CO)O[C@@H]2OC(C)(C)O[C@@H]21 (stereo not given in full)", "human liver microsomes, metabolic stability half-life", "78.9 min"),
    ("Cc1nn2c(c1-c1ccccc1Oc1ccccc1)N(Cc1cccc(C#N)c1)CCC2", "human liver microsomes, metabolic stability half-life", "0.77 min"),
    ("CCC[C@H](N[C@@H](C)C(=O)N1[C@H](C(=O)O)C[C@@H]2CCCC[C@@H]21)C(=O)OCC", "human liver microsomes, metabolic stability half-life", "> 120 min"),
]

Any idea what its half-life is? The molecule is O=C(Nc1c(-c2cccs2)nc2ccccn12)c1ccc(Cl)cc1 > 120 min

Also CN1CCN(CCCN2c3ccccc3Sc3ccc(C(F)(F)F)cc32)CC1 , if possible. 22.5 min
